- method: yeast display, Sf9 membrane polyspecificity reagent, FACS + sequencing; frameworks hold sequencing errors

- sequence content: "QGQLVESGGGLVHAGVSLRLSCAASGSTFQPYAMGWNRQAPGKERELVAAINWSGGGTYYADSVKGRFTISRDNAKNTVYLQMNSLKPVDTAVYYCAAEVYTYWALNTWRYDYWGQGTQVTVSS"
  polyreactivity (PSR sort gate): "high polyreactivity"
- sequence content: "QVQLVESGGGLVQAGGSLRLSCAASGRILWYNAMGWYRQAPGKERELVAAITSDGSTDYADSVKGRFTISRDNAKNTVYLQMNSLKPEDTAVYYCAKLYIRQYPTWYRYYYWGQGTQVTVSS"
  polyreactivity (PSR sort gate): "high polyreactivity"
- sequence content: "QVQLVESGGGLVQAGGSLRLSCAASGITFYDKAMGWYREAPGKERELVAGISYDGDSTYADSVKGRFTISRDNAKNTVYLQMNSLKPEDTAVYYCAALGPYDWLWAGDYWGQGTQVTVSS"
  polyreactivity (PSR sort gate): "low polyreactivity"
- sequence content: "QVQLVESGGGLVQAGGSLRLSCADSGITFYGSAMGWYRQAPGQERELVAAISKSGGSTHYADSVKGRFTISRDNAKNTVYLQMNSLKPEDTAVYYCAAAYWTRLRRMDYWGQGTQVTVSS"
  polyreactivity (PSR sort gate): "low polyreactivity"

====

- method: yeast display, Sf9 membrane polyspecificity reagent, FACS + sequencing; frameworks hold sequencing errors

- sequence content: "QVRLQESGGGLVQAGGSLRLSCAASGSISLTYYMDWSRQAPCTVREFVATITAGATTNYADSVKGRFTISRDNAKNTVYPQMNSLKPEDTEVYYSAVRAEHQVTLIYLGQGTQVTVSS"
  polyreactivity (PSR sort gate): "low polyreactivity"
- sequence content: "QVQLVESGGGLVQAGGSLRLSCAASGRTFSSNTMGWYRQAPGKERELVAAIDWSGGRTYYADSVKGRFTISRDNAKNTVYLQLNSLKPEDTEVYYCARSRSYWGIVYGRYDYWGQGTQVTVSS"
  polyreactivity (PSR sort gate): "high polyreactivity"
- sequence content: "QVQLVESGGGLVQAGGSLRLSCAASGSTFGQYVMGWYRQAPGKERELVAAISSADSTNYADSVKGRFTISRDNAKNTVYLQMNSLKPEDTAVYYCAAARRPTYWPVYPYFGYEYWGQGTQVTVSS"
  polyreactivity (PSR sort gate): "low polyreactivity"
- sequence content: "QDQLVESGRGLVQAGGSLRLSCAASGFIFYNYAMGWYIQAPGKERELVAAISASGGRTYFADSVQGRFTISRDNAKNTVYLQMNRLKPEDTAFYYCNARVNYKGYDYWGQGTQVTVSS"
  polyreactivity (PSR sort gate): "high polyreactivity"
- sequence content: "QVQLVESGGGLVQAGGSLRLSCAASGIIFTINAMGWYRQAPGKERELVAAISGRGARTYYADSVKGRFTISRDNAKNTVYLQMNSLKPEDTAVYYCNAANSRLHGSDYWGQGTQVTVSS"
  polyreactivity (PSR sort gate): "high polyreactivity"
- sequence content: "QVQLVESGGGLVQAGGSLRLSCAASGNTFGPYDMGWYRQSPGKERELVAGITSGGSTYYADSVKGRFTISRDNAKNTVYLQMNSLKPEDTAVYYCAADDYLWVYWYDYWGQGTQVTVSS"
  polyreactivity (PSR sort gate): "high polyreactivity"
- sequence content: "QVQLVESGGGLVQAGGSLRLSCAASGSTFFYYTIGWYRQAPGKERELVASITNRGGNTYYADSVKGRFTISRDNAKNTVYLQTNSLKPEDTAVYYCARRYYGYSGRYDYWGQGTQVTVSS"
  polyreactivity (PSR sort gate): "high polyreactivity"
- sequence content: "QFQLVESGGGLVQAGGSLPLSCAASGSIFLWTAMGWYRQAPGKERELVAAITLRGGSTYYADSLKGRFTISRDNAKYAVYLQLNSLKPEDTAVFYCAADVFLLYDYWGQGTQVTVSS"
  polyreactivity (PSR sort gate): "low polyreactivity"
- sequence content: "QVQLVESGGGLVQAGGSLRLSSAASGITFDIYDMGWYRQAPGKERELVAAISYSGGSTYYADSVKGRFTISRDNAKNTVYLQMNSLTPEDTAVYDCAAAWYYNSDNEFDYWGQGTQVTVSS"
  polyreactivity (PSR sort gate): "low polyreactivity"
- sequence content: "QVQLVDSGGGLVQAGGSLRLICAASGRTIWYYAMGWYRQAPGKERELLASITRSGGSTYADSVKGRFTISRDNAKNSVYLQMYSLKPEDTAVDYCAATRPRIPVYQNNYGYWGQGTQVTVSS"
  polyreactivity (PSR sort gate): "high polyreactivity"
- sequence content: "QVKLVESGRGLVQAGGSLRLSCAASGITFRSYAMGWYINATGKERELVATLSSSGGNTNYADSVKGRFTISRDNAKNTVYLQMNSLKPEDTAVYYCAAELWRYYYVVPGRYDDWGQGTQVTVSS"
  polyreactivity (PSR sort gate): "high polyreactivity"
- sequence content: "QVQLVESGGGLVQAGGSLRLSCAAYGSIFYFNAMGRYRQAPGKERELVASITSGGSTNYADSVKGRFTISRDNAKNTVYLQMNSLKPEETEVYYCNARFPYLSRWLVRGLASYDYWGQGTQVTVSS"
  polyreactivity (PSR sort gate): "low polyreactivity"
- sequence content: "QVQLVESGGGLVQAGGSLRLSCDASGFTFSAYAMGWYRQAPGKERELVAAISTRGGSTRYADSVKGRFTISRDNAKNTVYLQMNSLKPEDTAVYYCADDTRSFYRYDYWGQGTQVTVSS"
  polyreactivity (PSR sort gate): "high polyreactivity"
- sequence content: "QVQLVESVGGLVQAGVSLRLSCAASGITFYGYAMGWYRQAPGKERELVATSTSGGSTYYADSVKGRFTISRDNAKNTVYLQMNSLKPVDTAVYYCAASRWYRRTRYGYWGQGTQLTVSS"
  polyreactivity (PSR sort gate): "high polyreactivity"

====

- method: yeast display, Sf9 membrane polyspecificity reagent, FACS + sequencing; frameworks hold sequencing errors
endpoint label: polyreactivity (PSR sort gate)

- sequence content: "QVQLVESGGGLVQAGGSLRLSCAASGGTFGAYAMGWYRPAPGKERELVAAISGSGARTYYADSVKGRFTISRDNAKNTVYLQMNSLKPEDTAVYYCAARSTGTRVGEYDYWGQGTQVTVSS"
  endpoint label: "polyreactivity (PSR sort gate)"
  result: "high polyreactivity"
- sequence content: "QVQLVESGGGLVQAGGSLRLSCAASGRTFPGNAMGWYRQAPGKERELVAAISSRGGSTYYADSVKGRFTISRDNAKNTVYLQMNSLKPEDTAVYYCARRYLPYGGYYYWGQGTQVTVSS"
  endpoint label: "polyreactivity (PSR sort gate)"
  result: "high polyreactivity"
- sequence content: "QVQLVESGGGLVQAGGSLLLSCAASGSTLFLYAMGWYRQAPGKERELVAGITYSGSTYADSVKGRFTISRDNAKNTVYFQMNSLKPEDTAVYYCAKDGYWNEEYSVGMDYWGQGTQVTVSS"
  endpoint label: "polyreactivity (PSR sort gate)"
  result: "low polyreactivity"
- sequence content: "QVQLVESGAGLVQAGGSLRLSCAASVRIFDSYAMGWSRQAPGKERELVAAITGSGGRTYYAESVKGRFTISRDNAKNTVYLQMNSQKPEYTAVYYCARALGQRRYDYWGQGTHVTVSS"
  endpoint label: "polyreactivity (PSR sort gate)"
  result: "high polyreactivity"
- sequence content: "QVQLVESGGGLVQAGGSLRLSCAAYGRTIPRYAIGWSRQAPGKQRDFVDSISFSSGSTYYADSVKGRFTISRDNAKNTVYVQMKSMKAEDTAVDYSNDIPGSRYYGYRLYYYWGQGTQVTVSS"
  endpoint label: "polyreactivity (PSR sort gate)"
  result: "high polyreactivity"
- sequence content: "QVQLVESGGGLVQAGGSLRLSCAASGSTLSFYAMGWYRQAPGKERELVAAISYSTGTTYYADSVKGRFTISRDNAKNTVYLQMNSLKPEDTAVYYCAVYWQHNSTRYYYWGQGTQVTVSS"
  endpoint label: "polyreactivity (PSR sort gate)"
  result: "high polyreactivity"
- sequence content: "QVQLVESGGGLVQAGGSLGLSCAASGIIFQANAMGWYRQAPGKERELVAGISRGSSTNYADSVKGRFTISRDNEKNTVYLQMNILKPEDTAVYYCASDRGYGRISRNYYWGQGTQVTVSS"
  endpoint label: "polyreactivity (PSR sort gate)"
  result: "low polyreactivity"
- sequence content: "QVQLVESGGGLVQAGGSLRLSCAASGSTFYNNAMGWYRPAPGKERELVAAISSGGGTYYADSVKGRFTISRDNAKNTVYLQMNSLKPEDTAVYYCAAYFANTTHWGRIKRYDYWGQGTQVTVSS"
  endpoint label: "polyreactivity (PSR sort gate)"
  result: "low polyreactivity"
- sequence content: "QVQLVESGGGLVQAGGSLRLSCAASGFILFPYAMGWYRQAPGKERELVAAIRSDDTTYYADSVKGRFTISRDNAKNTVYLQMNSLKPEDTAVYYCNAARTRWATGYDYWGQGTQVTVSS"
  endpoint label: "polyreactivity (PSR sort gate)"
  result: "low polyreactivity"
- sequence content: "QVQLVESGGGLVQAGGSLRLSCAASGSTFQLYAMGWYRQAPGKERELVAGISRDGSTYYADSVKGRFTISRDNAKNTVYLQMNSLKPEDTAVYYCAAKYYGNKRDLYYWGQGTQVTVSS"
  endpoint label: "polyreactivity (PSR sort gate)"
  result: "low polyreactivity"
- sequence content: "QVQLVESGGGLVQAGGSLRLSCAASGRIFDFNAMGWYRQAPGKDRELLAAISRGGGSTYYADSVKGRFTMSRDNAKYTVYLQMNSLKPEDTAVYYCNADYYYPLRSNKYYYWGQGTQVTVSS"
  endpoint label: "polyreactivity (PSR sort gate)"
  result: "high polyreactivity"
